Here the recorded IC50 is given for each entry.
Molecular target: UniProtKB Q92731
Sequence (Q92731 whole entry): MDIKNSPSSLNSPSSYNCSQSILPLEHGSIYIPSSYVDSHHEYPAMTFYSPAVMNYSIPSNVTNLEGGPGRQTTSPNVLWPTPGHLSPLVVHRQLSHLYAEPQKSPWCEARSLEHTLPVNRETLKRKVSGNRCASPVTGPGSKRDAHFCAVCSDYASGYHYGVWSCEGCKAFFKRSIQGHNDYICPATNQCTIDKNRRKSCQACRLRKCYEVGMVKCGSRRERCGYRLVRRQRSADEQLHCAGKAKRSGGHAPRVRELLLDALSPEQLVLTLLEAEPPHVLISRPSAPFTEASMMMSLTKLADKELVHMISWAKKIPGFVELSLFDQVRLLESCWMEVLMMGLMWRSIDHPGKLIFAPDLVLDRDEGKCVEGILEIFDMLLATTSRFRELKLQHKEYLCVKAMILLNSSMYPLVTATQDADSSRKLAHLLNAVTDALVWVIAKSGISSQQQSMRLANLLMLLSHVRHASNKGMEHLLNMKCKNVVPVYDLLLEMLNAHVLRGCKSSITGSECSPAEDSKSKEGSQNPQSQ
Give your result in nM as a bare value.

# mol smiles, IC50, nM
records = [
    ("CCCCOc1cc(-c2nc3ccc(O)cc3o2)ccc1O", 3660),
    ("Oc1ccc(-c2noc3ccccc23)c(O)c1", 718),
]

Would you kindly look at the next entry?
Query: For the compound N#CCc1cc(O)ccc1-c1noc2cc(O)ccc12 , report IC50.
Result: 96

---

Record: IC50 reported on Estrogen receptor beta (Mus musculus).
Sequence (O08537 whole entry): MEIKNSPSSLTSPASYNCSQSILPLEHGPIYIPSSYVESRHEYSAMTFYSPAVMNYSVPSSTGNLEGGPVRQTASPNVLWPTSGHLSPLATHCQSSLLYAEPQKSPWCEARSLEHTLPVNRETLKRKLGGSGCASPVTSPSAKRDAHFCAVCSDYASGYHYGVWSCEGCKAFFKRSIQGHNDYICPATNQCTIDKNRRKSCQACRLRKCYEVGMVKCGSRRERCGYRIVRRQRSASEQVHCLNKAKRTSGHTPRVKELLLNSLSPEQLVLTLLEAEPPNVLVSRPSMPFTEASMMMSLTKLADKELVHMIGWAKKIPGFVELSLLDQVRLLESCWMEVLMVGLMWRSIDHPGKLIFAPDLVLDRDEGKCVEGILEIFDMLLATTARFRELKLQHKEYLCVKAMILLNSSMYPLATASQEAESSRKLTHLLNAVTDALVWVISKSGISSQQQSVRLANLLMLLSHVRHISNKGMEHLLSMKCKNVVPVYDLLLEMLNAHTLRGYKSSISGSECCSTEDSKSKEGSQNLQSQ
Report only the number, with the unit nM understood.

The examples below pair each entry with its known result.
# mol smiles, experimental readout, units label, value measured
data = [
    ("Oc1ccc(-c2nc3cc(O)cc(Br)c3o2)cc1", "IC50", "nM", 1.7),
    ("Oc1cc(Br)c2oc(-c3ccc(O)c(F)c3)nc2c1", "IC50", "nM", 2.7),
    ("C=Cc1cc(O)cc2nc(-c3ccc(O)c(F)c3)oc12", "IC50", "nM", 3.7),
    ("Oc1ccc(-c2nc3ccc(O)cc3o2)cc1", "IC50", "nM", 9.5),
    ("N#Cc1cc(O)cc2nc(-c3ccc(O)cc3)oc12", "IC50", "nM", 4.3),
]

Query: Answer with reported IC50 of Oc1ccc(-c2nc3cc(O)ccc3o2)cc1
Result: 9.9
